Measured Dose.FC.CTG of individual entries
Test system: ENR+CD organoids
Assay: Primary screen: ATP (CellTiter-Glo 3D, CTG) cell number/viability, 2.5-D 384-well ENR+CD organoids;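 further: compounds given at plating and again on day 3 over a 6-day differentiation from ENR+CV stem-cell-enriched precursors, ATP measured on day 6, plate median as control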
Conditions: primary screen, dose 2.00 uM
Structures can show the parent of a compound that is named as a salt.
readout: Dose.FC.CTG

>>> assay_result("COc1ccc([C@]2(C#N)CC[C@@H](C(=O)O)CC2)cc1OC1CCCC1")
"−0.235 log2 fold change"
>>> assay_result("Oc1nc(-c2ccc(C(F)(F)F)cc2)nc2c1CSCC2")
"−0.355 log2 fold change"
>>> assay_result("C[C@H](NC(=O)Cc1cc(F)cc(F)c1)C(=O)N[C@@H]1C(=O)N(C)c2ccccc2-c2ccccc21")
"−0.571 log2 fold change"
>>> assay_result("COc1cc(Nc2c(C#N)cnc3cc(OCCCN4CCN(C)CC4)c(OC)cc23)c(Cl)cc1Cl [Bosutinib (SKI-606), Bosutinib, reference compound]")
"−0.169 log2 fold change"
>>> assay_result("Cn1c(N2CCCCS2(=O)=O)nc(C(=O)NCc2ccc(F)cc2)c(O)c1=O")
"0.279 log2 fold change"
>>> assay_result("CCN(CC)C(=O)c1ccc(C2=CC3(CCNCC3)Oc3cccc(O)c32)cc1 [ADL5859 HCl]")
"0.291 log2 fold change"
>>> assay_result("C[C@@H]1COCCN1c1cc(C2(S(C)(=O)=O)CC2)nc(-c2cccc3[nH]ccc23)n1")
"−1.054 log2 fold change"
>>> assay_result("C=CC(=O)Nc1cccc(Oc2nc(Nc3ccc(N4CCN(C)CC4)cc3OC)ncc2Cl)c1")
"0.151 log2 fold change"
